Molecular target: first-generation H1 LAH construct H1frThrST (Influenza A virus (H1))
Test: ELISA, supernate
READOUT NAME: OD (OD)
Dear colleague, please return just the value in OD, with no unit written.

Can you share its OD? I mean this binder: mAb 11J19 (antibody, V domains shown) VH: EVQLQESGPGLVKPSETLSLSCTVSGGSITRSSYYWGWIRQPPGKGLEWIGNIYYSGTTYYNPSLKSRVTISVDTSKNQFSLKLSSVTAADTAVYYCARLYGSGLDYWGQGTLVTVS VL: DIQLTQSPSFLSASVGDRVTITCRASQGSSRYVAWYQQKPGKAPKLLILAASTLHTGVPSRFSGSGSGTEFTLTISSLQPEDFATYSCQQLNGFLLTFGGGTKVEIKR
0.085
